Molecular target: High affinity choline transporter 1 (Homo sapiens)
Experiment: inhibitors of human choline transporter CHT (AID 488975);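 as to B-score: choline stimulus applied at its EC90 after an EC20 pre-addition; B-score computed on integrated fluorescence ratio after choline addition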
Details: CHT-expressing cells, membrane potential dye, choline response, at 10 µM; hits give low values
The whole screen tested about 310,000 compounds, of which about 2,600 (0.84%) were called active. Many of the other results were omitted from the sample, so actives are more common in it than they were.
Measurement Name: B-score

Before answering, review these 6 worked examples.
{"columns": ["Molecule", "B-score"],
 "data": [
  ["COc1ccc(S(=O)(=O)N(CC(=O)N/N=C/c2ccc(C(=O)O)cc2)Cc2ccccc2)cc1OC", "inactive"],
  ["CCN(CC)c1ccc(/C=N/NC(=O)c2cnccn2)c(O)c1", "-5.95 (active)"],
  ["CC1CCN(C(=O)CN(c2ccc(Oc3ccccc3)cc2)S(C)(=O)=O)CC1", "-5.53 (active)"],
  ["COc1ccc(/C=C(\\C#N)C(=O)NCCCn2ccnc2)cc1", "inactive"],
  ["COc1ccc(N(CC(=O)N2CCCCCC2)S(=O)(=O)c2ccccc2)cc1", "inactive"],
  ["Cc1ccc2nc(Nc3ccccc3)cc(C)c2c1", "-8.75 (active)"]
]}

Enter measured B-score, system High affinity choline transporter 1 (Homo sapiens), for the molecule shown: COc1cccc(-c2nn(-c3ccccc3)cc2/C=C(\C#N)C(=O)NCCCn2ccnc2)c1
-6.63 (active)

State B-score on High affinity choline transporter 1 (Homo sapiens). Entry: COc1ccc(C2=NN(C(=O)CSc3nc(=O)n4ccc(C)cc4n3)C(c3ccc(C)cc3)C2)cc1 (stereo unspecified)
inactive

Report its B-score with High affinity choline transporter 1 (Homo sapiens) as the test system: COc1ccc(C(=O)c2c(C)oc3cc([N+](=O)[O-])c(O)c([N+](=O)[O-])c23)cc1
inactive

Look up High affinity choline transporter 1 (Homo sapiens) data: B-score of O=C(c1cc(-c2ccco2)nc2ccccc12)N(Cc1nnc(-c2ccc(Cl)cc2)o1)C1CC1 , then report it.
inactive

Identify measured B-score obtained with High affinity choline transporter 1 (Homo sapiens) for Cc1ccc(S(=O)(=O)NCCC(=O)NC2CCN(Cc3ccccc3)CC2)cc1 .
inactive

Find the measured B-score of Cc1ccc(C(=O)NNC(=O)C(C)Oc2ccc3ccccc3c2)o1 (stereo unspecified) with High affinity choline transporter 1 (Homo sapiens) as test system.
inactive

Answer with B-score of Cc1cc(Nc2ccc(Br)cc2)nc2ccccc12 measured for High affinity choline transporter 1 (Homo sapiens).
inactive

Enter B-score (test system High affinity choline transporter 1 (Homo sapiens)) for CC(Oc1ccc2ccccc2c1)C(=O)NNC(=S)NC(=O)c1ccco1 (stereo unspecified)
-5.21 (active)

Give High affinity choline transporter 1 (Homo sapiens) B-score for the following molecule: CCN(CC)c1ccc(/C=N/Nc2nc(C)cc(C)n2)c(O)c1
inactive

Provide B-score, recorded with High affinity choline transporter 1 (Homo sapiens), of O=C(N/N=C/c1cc(Br)c(O)c([N+](=O)[O-])c1)C(O)(c1ccccc1)c1ccccc1
inactive

For High affinity choline transporter 1 (Homo sapiens), give B-score of the listed molecule: Cc1oc2cc([N+](=O)[O-])c(O)c([N+](=O)[O-])c2c1C(=O)c1ccc(Br)cc1
-6.57 (active)

Write down the reported B-score (system: High affinity choline transporter 1 (Homo sapiens)) of O=C(Nc1ccc2ccccc2c1)/C(=C/c1cccc(Br)c1)NC(=O)c1ccco1
inactive

Report B-score on High affinity choline transporter 1 (Homo sapiens) for this entry: COc1cc(OC)cc(C(=O)NCCCn2ccnc2)c1
inactive

Using High affinity choline transporter 1 (Homo sapiens) as the test system, report measured B-score of CS(=O)(=O)N(CC(=O)N1CCN(c2cccc(Cl)c2)CC1)c1ccccc1 .
inactive

Recall the reported B-score of CCN(Cc1ccccc1)S(=O)(=O)c1cc(C(=O)O)ccc1OC on High affinity choline transporter 1 (Homo sapiens) and write it down.
-5.82 (active)
